These entries and their values trace back to patent US8835502B2.

Documented IC50 across a set of compounds
Molecular target: total histone deacetylation in a HeLa nuclear extract
Assay: Histone deacetylase assay (BioMol AK500 kit), HeLa nuclear extract
Format: biochemical
Settings: HeLa nuclear extract; read-out: IC50, total histone deacetylation inhibition (converted)
All answers are understood in µM, so give the number only.

>>> print(df.to_string())
                                   compound  parameter  obs_value
0         Nc1ccccc1NC(=O)CCCCC(=O)Nc1ccccc1       IC50        238
1  COc1ccc(NC(=O)CCCCCC(=O)Nc2ccccc2)c(OC)c1 [Compound 15b]       IC50        387

Query block: State the measured IC50 (total histone deacetylation in a HeLa nuclear extract) of Nc1ccccc1NC(=O)CCCCCCC(=O)Nc1ccccc1
Result block: 87

Query block: State the measured IC50 (total histone deacetylation in a HeLa nuclear extract) of Nc1ccc(NC(=O)CCCCCC(=O)Nc2ccccc2)cc1
Result block: 123

Query block: State the measured IC50 (total histone deacetylation in a HeLa nuclear extract) of O=C(CCCCCC(=O)Nc1cccc2cccnc12)Nc1ccccc1 [Compound 11b]
Result block: 17

Query block: State the measured IC50 (total histone deacetylation in a HeLa nuclear extract) of Nc1cccc(NC(=O)CCCCCCC(=O)Nc2ccccc2)c1
Result block: 85

Query block: State the measured IC50 (total histone deacetylation in a HeLa nuclear extract) of Nc1ccc(NC(=O)CCCCCCC(=O)Nc2ccccc2)cc1
Result block: 186
